Where do these numbers come from? They come from paper PMC12102759.

B1: PAIP1 peptide 126-141 (Polyadenylate-binding protein-interacting protein 1), 16-mer library wild type / PABPC1 PABC (PABPC1 PABC domain, residues 544-623) (parent)
chain 1: SKLSVNAPEFYPSGYS
chain 2: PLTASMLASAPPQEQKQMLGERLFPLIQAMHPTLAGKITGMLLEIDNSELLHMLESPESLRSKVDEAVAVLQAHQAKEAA

variants of: B1; assay: proteomic peptide phage display deep mutational scan (ProP-PD DMS): M13 P8 16-mer library selected against immobilised GST-tagged bait for four days (rounds), NGS of the eluted pools per day and pseudo-replica; conditions: with PABPC1 PABC (PABPC1 PABC domain, residues 544-623); bait immobilised on MaxiSorp plates (10 µg), library pre-cleared on GST, 2 h binding at 4 °C, five washes; one round per day, days 1-4; value from days 2 and 3; keep out of graded; scale: average fractional NGS count over selection days 2 and 3
measure-name: screen value
Lab note: jot down the number only; don't add units.

Ask: Provide measured screen value value, entry: chain 1 S13M
Reply: 0.000419

Ask: Supply reported screen value belonging to this variant: chain 1 F10Y
Reply: 0.00206

Ask: Fill in reported screen value for this entry: chain 1 S4A
Reply: 0.00227

Ask: Supply measured screen value of chain 1 E9K in your reply.
Reply: 0.000266

Ask: Answer with reported screen value of chain 1 Y15I
Reply: 7.69e-05

Ask: Given chain 1 P12T , respond with its screen value.
Reply: 0.000222

Ask: In one line, give reported screen value of the entry chain 1 Y15R .
Reply: 0.00115
